target: T1, Anti-PSMA Fab (SEQ ID NOs: 19, 20); experiment: phage binding ELISA; biotinylated PSMA Fab captured on neutravidin plate, clonal phage supernatant, anti-M13 HRP detection
T1 construct: Biotinylated and captured on neutravidin coated plates in the phage ELISA; also called 006 PSMA Fab
measured.property: Anti-PSMA Fab (SEQ ID NOs: 19, 20) signal
The answer should be written as a number, with no unit following it.

Observe how each entry below is paired with its result.
DVKMCIPAWMCSFD (tested as crude clonal phage supernatant) [Phage-1967]    1.91
TMHWCIPQWMCETG (tested as crude clonal phage supernatant) [Phage-1976]    1.89
PWHWCIPEWMCAEY (tested as crude clonal phage supernatant) [Phage-1972]    1.9
FDNWCKPSWMCAGL (tested as crude clonal phage supernatant) [Phage-1975]    1.89
WDKWCRPAWMCEST (tested as crude clonal phage supernatant) [Phage-1966]    1.91

Task: For the binder VEKWCKPTWMCEMV (tested as crude clonal phage supernatant) [Phage-1969] , what Anti-PSMA Fab (SEQ ID NOs: 19, 20) signal is on record?
Output: 1.9

Task: Lookup LVKWCIPEWMCEVL (tested as crude clonal phage supernatant) [Phage-1974]
Output: 1.9
